- Test system: COLO 205 colon
- Assay Details: NCI tumour cell line growth inhibition, 48 h; in the data active means GI50 below about 0.43 µM; inactive means the rest
Outcomes: YES for active, NO for inactive

- Compound: "O=C1C(c2c[nH]c3ccccc23)=C(c2c[nH]c3ccccc23)C(=O)N1O"
  Classification: "NO"
- Compound: "Cc1ccc(/C(=N\\N=C(N)N)c2ccccc2)cc1"
  Classification: "YES"
- Compound: "CCc1n(Cc2ccc3ccccc3n2)cc[n+]1Cc1ccc2ccccc2n1"
  Classification: "YES"
- Compound: "COc1ccc(C2SCC(=O)N2NC(=O)C(O)c2ccccc2)cc1OC (stereo not given)"
  Classification: "NO"
- Compound: "CCCCCCCNc1nc(C(=O)OCC)ncc1-c1ccc(C(F)(F)F)cc1"
  Classification: "NO"
- Compound: "C/C(=N\\O)c1cccc(Nc2cc(-n3ccnn3)c3ccccc3n2)c1"
  Classification: "NO"
- Compound: "Cc1ccc(S(=O)(=O)NCCNC2=CC(=O)c3nc4ccccc4c4ccnc2c34)cc1"
  Classification: "NO"
- Compound: "C=C1SC(=Nc2c(C)cc(C)cc2C)N(C(=O)c2sc3ccccc3c2Cl)C12CCCCC2"
  Classification: "NO"
- Compound: "CCn1c(C(=O)N(C2CC2)C2CC2)cc2c3c(ncn3C)c(Nc3cc(C)n(C)n3)nc21"
  Classification: "NO"
- Compound: "C1C[OH+]CC[OH+]CCNCC[OH+]CC[OH+]CCN1.[Cl-].[Pt+4]"
  Classification: "NO"
